- Test system: V. alginolyticus
- Measurement Description: Macromolecule synthesis inhibition assay by fluorescent microscopy (morphological changes)
- Assay Setup: 4 × MIC, 2 h, 37 °C; FM4-64FX
Measured Endpoint: Observed Morphology: cell membrane, V. alginolyticus

[
  {
    "Compound Structure": "CC1(C)S[C@@H]2[C@H](NC(=O)[C@H](N)c3ccc(O)cc3)C(=O)N2[C@H]1C(=O)O",
    "Result": "Cell membrane thickening"
  },
  {
    "Compound Structure": "COc1cc(C(=O)Cc2c3[n+](cc4c(OC)c(OC)ccc24)CCc2cc4c(cc2-3)OCO4)cc(OC)c1OC(=O)c1ccccc1",
    "Result": "Cell membrane thickening"
  }
]
